Assign pIC100 to each entry below.
# System Under Test: Nuclear factor NF-kappa-B complex (Homo sapiens) (UniProt Q00653+P19838+Q04206)
# Sequence (P19838 whole entry, looked up): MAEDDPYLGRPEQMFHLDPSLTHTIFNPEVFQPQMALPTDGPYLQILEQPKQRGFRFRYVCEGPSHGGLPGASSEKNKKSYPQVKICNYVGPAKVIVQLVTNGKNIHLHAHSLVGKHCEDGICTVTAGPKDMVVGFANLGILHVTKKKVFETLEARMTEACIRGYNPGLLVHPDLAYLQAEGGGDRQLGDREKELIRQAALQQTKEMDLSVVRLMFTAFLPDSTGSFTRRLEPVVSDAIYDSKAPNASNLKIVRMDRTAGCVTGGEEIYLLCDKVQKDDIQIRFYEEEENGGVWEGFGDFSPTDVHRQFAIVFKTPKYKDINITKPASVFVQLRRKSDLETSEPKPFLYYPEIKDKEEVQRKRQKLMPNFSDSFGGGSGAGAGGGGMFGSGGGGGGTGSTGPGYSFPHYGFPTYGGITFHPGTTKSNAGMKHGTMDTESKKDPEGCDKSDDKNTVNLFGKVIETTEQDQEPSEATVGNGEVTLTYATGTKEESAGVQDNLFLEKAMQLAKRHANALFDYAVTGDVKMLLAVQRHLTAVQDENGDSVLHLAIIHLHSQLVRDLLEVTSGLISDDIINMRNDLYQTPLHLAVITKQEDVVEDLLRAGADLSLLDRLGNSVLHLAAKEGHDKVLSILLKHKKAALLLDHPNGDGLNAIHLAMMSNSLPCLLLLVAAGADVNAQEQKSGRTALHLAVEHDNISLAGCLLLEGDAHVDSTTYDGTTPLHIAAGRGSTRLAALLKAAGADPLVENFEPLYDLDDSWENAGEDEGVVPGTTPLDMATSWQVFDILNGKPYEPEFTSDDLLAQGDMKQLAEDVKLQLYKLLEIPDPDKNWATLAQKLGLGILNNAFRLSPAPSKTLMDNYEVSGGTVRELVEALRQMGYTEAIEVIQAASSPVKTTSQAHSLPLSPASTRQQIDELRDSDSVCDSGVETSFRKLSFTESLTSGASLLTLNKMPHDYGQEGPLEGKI
# Sequence (Q00653 whole entry, looked up): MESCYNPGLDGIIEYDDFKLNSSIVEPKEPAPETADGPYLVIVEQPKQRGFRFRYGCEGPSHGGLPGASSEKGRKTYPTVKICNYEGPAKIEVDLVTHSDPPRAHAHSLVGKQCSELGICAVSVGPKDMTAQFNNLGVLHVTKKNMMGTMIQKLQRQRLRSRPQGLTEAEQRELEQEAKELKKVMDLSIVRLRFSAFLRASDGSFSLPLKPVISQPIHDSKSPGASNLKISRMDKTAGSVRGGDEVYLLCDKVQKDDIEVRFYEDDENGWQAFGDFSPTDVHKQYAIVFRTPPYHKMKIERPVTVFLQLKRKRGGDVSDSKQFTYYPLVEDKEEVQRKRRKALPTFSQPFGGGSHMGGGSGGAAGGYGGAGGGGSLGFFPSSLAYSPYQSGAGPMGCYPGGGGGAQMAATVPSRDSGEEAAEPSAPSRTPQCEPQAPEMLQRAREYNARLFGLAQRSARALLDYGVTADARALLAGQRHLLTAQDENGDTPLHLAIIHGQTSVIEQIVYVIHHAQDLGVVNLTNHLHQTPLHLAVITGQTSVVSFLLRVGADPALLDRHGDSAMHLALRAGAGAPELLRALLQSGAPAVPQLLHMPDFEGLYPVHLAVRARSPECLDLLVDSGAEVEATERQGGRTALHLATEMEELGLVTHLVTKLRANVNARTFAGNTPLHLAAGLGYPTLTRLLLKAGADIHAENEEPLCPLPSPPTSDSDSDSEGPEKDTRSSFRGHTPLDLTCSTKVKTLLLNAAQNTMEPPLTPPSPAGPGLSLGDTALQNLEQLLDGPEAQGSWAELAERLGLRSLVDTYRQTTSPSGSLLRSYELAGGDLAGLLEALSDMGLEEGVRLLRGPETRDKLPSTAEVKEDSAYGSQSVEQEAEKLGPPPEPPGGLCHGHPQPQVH
# Sequence (Q04206 whole entry, looked up): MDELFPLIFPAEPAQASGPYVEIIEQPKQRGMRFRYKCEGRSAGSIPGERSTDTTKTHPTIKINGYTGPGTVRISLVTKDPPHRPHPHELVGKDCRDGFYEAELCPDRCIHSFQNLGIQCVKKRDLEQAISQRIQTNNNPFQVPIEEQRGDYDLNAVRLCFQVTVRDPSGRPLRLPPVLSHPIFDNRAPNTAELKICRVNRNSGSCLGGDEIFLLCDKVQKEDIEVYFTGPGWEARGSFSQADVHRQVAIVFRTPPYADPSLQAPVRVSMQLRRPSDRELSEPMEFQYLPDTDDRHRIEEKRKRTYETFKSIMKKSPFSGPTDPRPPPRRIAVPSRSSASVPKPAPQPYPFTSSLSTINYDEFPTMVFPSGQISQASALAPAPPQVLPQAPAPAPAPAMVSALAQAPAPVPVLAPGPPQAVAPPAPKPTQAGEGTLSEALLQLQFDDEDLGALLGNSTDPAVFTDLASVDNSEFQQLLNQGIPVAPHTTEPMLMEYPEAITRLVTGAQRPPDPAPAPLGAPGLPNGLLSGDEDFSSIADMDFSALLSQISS
# Assay Explanation: Concentration required for complete inhibition of Nuclear factor kappa B DNA binding
# Assay type: protein-complex assay
# Set-up: unit not given here
Give bare numbers.

molecule="C=C1C(=O)O[C@H]2C/C(CO)=C\\CC/C(COC(=O)C(C)C(C)O)=C\\C[C@H]12 (stereo partly drawn)" val=-1.69
molecule=C=C1C(=O)C[C@H]2C(=C)C(=O)O[C@@H]2/C=C(/COC(=O)C(C)C)CC[C@@H]1OC val=-1.09
molecule=C=C(C)C(=O)O[C@H]1[C@H]2C(=C)C(=O)O[C@@H]2/C=C(/COC(C)=O)CC/C=C(/C=O)[C@@H]1O val=-0.69
molecule=C=C(CO)C(=O)OC/C1=C/C[C@@H]2C(=C)C(=O)O[C@H]2C/C(CO)=C\CC1 val=-1.3
molecule=C=C1C(=O)O[C@@H]2/C=C(/CO)C3=CC(=O)[C@@](C)(C[C@@H](OC(=O)/C(C)=C/C)[C@@H]12)O3 val=-0.69
molecule=C=C(C)C(=O)O[C@H]1C/C(C)=C\[C@@]2(OC)C=C(C)[C@H](O2)[C@H]2OC(=O)C(=C)[C@@H]21 val=-1
molecule=C=C1C(=O)O[C@@H]2/C=C(/CO)C3=CC(=O)[C@@](C)(C[C@H](OC(=O)/C(C)=C/C)[C@@H]12)O3 val=-0.69

INPUT: Returns the measured pIC100 for the input molecule. Input: C=C1C(=O)O[C@H]2C[C@]3(C)O[C@@H]3C[C@@H](OC(C)=O)C3=C[C@@H](OC3=O)[C@H]12
OUTPUT: -1

----------
Assign pIC100 to each entry below.
# System Under Test: Nuclear factor NF-kappa-B complex (Homo sapiens) (UniProt Q00653+P19838+Q04206)
# Assay Explanation: Concentration required for complete inhibition of Nuclear factor kappa B DNA binding
# Format: protein-complex assay
# Design: unit not given here
Answers are plain numbers.

Below, each entry is followed by its recorded pIC100 result.
molecule=C=C1C(=O)O[C@@H]2[C@H]3C(C)=CC[C@H]3[C@](C)(O)C[C@H](OC(C)=O)[C@@H]12 reported_endpoint=pIC100 val=-1.3
molecule="C=C1C(=O)OC2/C=C(/C)CC/C=C(/C)[C@@H](OC(C)=O)C[C@@H]12 (some centres undefined)" reported_endpoint=pIC100 val=-2.3
molecule=C=C1C(=O)O[C@@H]2[C@H]3C(C)=C(Cl)C(=O)C3=C(C)CC[C@@H]12 reported_endpoint=pIC100 val=-1.3
molecule=C=C(C)C(=O)O[C@H]1[C@H]2C(=C)C(=O)O[C@@H]2[C@@H](O)C(=C)CC/C=C(/C=O)[C@@H]1OC reported_endpoint=pIC100 val=-1.3
molecule=C=C1C(=O)O[C@H]2C/C(CO)=C\CC/C(COC(=O)C(C)C)=C\C[C@H]12 reported_endpoint=pIC100 val=-1.69

Batch request: pIC100 per item, same order as input.
1. C=C1C(=O)O[C@H]2C3=C(C(=O)C[C@@H]3C)[C@@H](C)CC[C@@H]12
2. C=C(C)C(=O)O[C@H]1/C(C=O)=C\CC/C(COC(C)=O)=C\[C@H]2OC(=O)C(=C)[C@@H]2[C@@H]1O
3. C=C(C)C(=O)O[C@@H]1/C=C(/C=O)CCC[C@@]2(CO2)[C@H](O)[C@H]2OC(=O)C(=C)[C@@H]21
4. C=C1C(=O)O[C@H]2C/C(CO)=C\CC/C(COC(=O)C3(C)CO3)=C\C[C@H]12 (some centres undefined)

OUTPUT:
1. -1.3
2. -0.69
3. -0.69
4. -1.69

----------
# System Under Test: Nuclear factor NF-kappa-B complex (Homo sapiens) (UniProt Q00653+P19838+Q04206)
# Assay Explanation: Concentration required for complete inhibition of Nuclear factor kappa B DNA binding
# Type: protein-complex assay
Reported Endpoint: IC100 (µM)
Give bare numbers, in µM.

Below, each entry is followed by its recorded IC100 result.
record_smiles=C=C1C(=O)O[C@@H]2C[C@H](C)[C@@H]3CC(=O)C(C)=C3C[C@H]12 system_under_test="Nuclear factor NF-kappa-B complex (Homo sapiens) (UniProt Q00653+P19838+Q04206)" val=50
record_smiles=C=C(C)C(=O)O[C@H]1[C@H]2C(=C)C(=O)O[C@@H]2/C=C(/COC(C)=O)CC/C=C(/C=O)[C@@H]1O system_under_test="Nuclear factor NF-kappa-B complex (Homo sapiens) (UniProt Q00653+P19838+Q04206)" val=5
record_smiles=C=C1C(=O)O[C@@H]2C[C@@]3(C)[C@H](O)CC=C(COC(=O)C(C)C)[C@@H]3C[C@H]12 system_under_test="Nuclear factor NF-kappa-B complex (Homo sapiens) (UniProt Q00653+P19838+Q04206)" val=50
record_smiles=C=C(C)C(=O)O[C@@H]1C[C@]2(C)CC[C@@](OC)(O2)/C(C)=C\[C@H]2OC(=O)C(=C)[C@@H]21 system_under_test="Nuclear factor NF-kappa-B complex (Homo sapiens) (UniProt Q00653+P19838+Q04206)" val=200

INPUT: Returns the measured IC100 for the input molecule. Input: C=C1C(=O)O[C@@H]2C[C@@]3(C)[C@H](O)CC[C@@](O)(COC(=O)C(C)C)[C@@H]3C[C@H]12
OUTPUT: 200

----------
Assign IC100 to each entry below.
# System Under Test: Nuclear factor NF-kappa-B complex (Homo sapiens) (UniProt Q00653+P19838+Q04206)
# Assay Explanation: Concentration required for complete inhibition of Nuclear factor kappa B DNA binding
# Format: protein-complex assay
One number for each entry, in µM.

Below, each entry is followed by its recorded IC100 result.
record_smiles=C=C1C(=O)O[C@@H]2C[C@@H](C)[C@@H]3[C@@H](OC(C)=O)C[C@@H](O)[C@@]3(C)C[C@H]12 reported_endpoint=IC100 scale_unit=µM val=200
record_smiles=C=C(C)C(=O)O[C@@H]1C[C@](C)(O)[C@@H]2C(=O)C=C(C)[C@@H]2[C@H]2OC(=O)C(=C)[C@@H]21 reported_endpoint=IC100 scale_unit=µM val=50
record_smiles=C=C1C(=O)O[C@H]2C[C@H](C)C3=C(C[C@H]12)[C@@H](C)CC3=O reported_endpoint=IC100 scale_unit=µM val=20

Here is the next item to consider.
INPUT: Returns the measured IC100 for the input molecule. Input: C=C1C(=O)O[C@@H]2C[C@@]3(C)[C@H](OC(C)=O)CC[C@](O)(COC(=O)C(C)C)[C@@H]3C[C@H]12
OUTPUT: 100

----------
# System Under Test: Nuclear factor NF-kappa-B complex (Homo sapiens) (UniProt Q00653+P19838+Q04206)
# Assay Explanation: Concentration required for complete inhibition of Nuclear factor kappa B DNA binding
# Assay type: protein-complex assay
# Parameters: unit not given here
Assign pIC100 to each entry below.
Give bare numbers.

Below, each entry is followed by its recorded pIC100 result.
molecule=C=C1C(=O)O[C@@H]2/C=C(/COC(=O)C(C)C)CC/C=C(/CO)C(=O)C[C@@H]12 val=-1.09
molecule=C=C1C(=O)C[C@H]2C(=C)C(=O)O[C@@H]2/C=C(/COC(=O)C(C)C)CC[C@H]1OC val=-1.39
molecule=C=C(C)C(=O)O[C@@H]1C[C@]2(C)CC[C@@](O)(O2)[C@@H](C)C[C@H]2OC(=O)C(=C)[C@H]12 val=-2.3
molecule=C=C1C(=O)O[C@@H]2/C=C(/C)C3=CC(=O)[C@@](C)(C[C@@H](OC(=O)/C(C)=C/C)[C@@H]12)O3 val=-0.69
molecule=C=C(C)C(=O)O[C@@H]1C[C@](C)(O)[C@@H]2C(=O)C=C(C)[C@@H]2[C@H]2OC(=O)C(=C)[C@@H]21 val=-1.69
molecule=C=C1C[C@@H]2OC(=O)C(=C)[C@H]2[C@H](O)/C=C(\C)CCC1=O val=-1.69
molecule=C=C(C)C(=O)O[C@@H]1/C=C(/C=O)[C@H](OC)CCC(=C)[C@H](O)[C@H]2OC(=O)C(=C)[C@@H]21 val=-1
molecule="C=C1C(=O)O[C@H]2C/C(CO)=C\\CC/C(COC(=O)C(C)CC)=C\\C[C@H]12 (stereo partly drawn)" val=-1.69

Batch request: pIC100 per item, same order as input.
1. C=C1C(=O)O[C@@H]2/C=C(/C)[C@]3(O)O[C@@](C)(C[C@@H]3OC)C[C@@H](OC(=O)C(C)C)[C@@H]12
2. C=C1C(=O)O[C@@H]2/C=C(/COC(=O)CC(C)C)CC/C=C(/CO)C(=O)C[C@@H]12 (stereo in doubt; 3)
3. C=C1C(=O)O[C@@H]2[C@H]3C(C)=CC(=O)C3=C(C)C[C@@H](OC(=O)[C@]3(C)O[C@@H]3C)[C@@H]12
4. C=C(C)C(=O)O[C@@H]1C[C@@]2(C)OC(=CC2=O)/C(C)=C\[C@H]2OC(=O)C(=C)[C@@H]21
5. C=C(C)C(=O)O[C@H]1C[C@@]2(C)OC(=CC2=O)C(=C)[C@@H](Cl)[C@H]2OC(=O)C(=C)[C@@H]21
6. C=C(C)C(=O)O[C@@H]1/C=C(/C=O)CCCC(=C)[C@H](O)[C@H]2OC(=O)C(=C)[C@@H]21

OUTPUT:
[-2.3, -1.09, -1.3, -1, -0.69, -0.69]

Batch request: pIC100 per item, same order as input.
1. C=C1C(=O)O[C@@H]2/C=C(/C)CC/C=C(/C)CC[C@@]12O
2. C=C1[C@@H]2[C@H]3OC(=O)C(=C)[C@@H]3CC[C@](C)(O)[C@@H]2C[C@@H]1O
3. C=C(C)C(=O)O[C@@H]1C[C@]2(C)CC[C@@](OC)(O2)/C(C)=C\[C@H]2OC(=O)C(=C)[C@@H]21
4. C=C(C)C(=O)O[C@H]1/C(C=O)=C\CC/C(C)=C\[C@H]2OC(=O)C(=C)[C@@H]2[C@@H]1O
5. C=C1C(=O)O[C@@H]2/C=C(/COC(=O)CC(C)C)CC/C=C(/CO)C(=O)C[C@@H]12 (stereo in doubt; 5)
6. C=C(C)C(=O)O[C@H]1C[C@@]2(C)OC(=CC2=O)/C(CO)=C\[C@H]2OC(=O)C(=C)[C@H]12
7. C=C(C)C(=O)O[C@@H]1C=C(C=O)CCCC(=C)[C@H](O)[C@H]2OC(=O)C(=C)[C@@H]21
8. C=C1C(=O)C[C@H]2C(=C)C(=O)O[C@@H]2/C=C(/COC(=O)CC(C)C)CC[C@H]1OC

OUTPUT:
1. -1
2. -2.3
3. -2.3
4. -0.69
5. -1.09
6. -1.3
7. -1
8. -1.09

INPUT: Returns the measured pIC100 for the input molecule. Input: C=C1C(=O)C=C2[C@H]1C[C@@H]1C(=C)C(=O)O[C@H]1C[C@@H]2C
OUTPUT: -0.69
